Ref: PubChem BioAssay (NCI)

# Tested on: HCC-2998 colon
# TEST NAME: NCI tumour cell line growth inhibition, 48 h
READOUT KIND: TGI (µM)
Supply the numeric figure in µM, leaving out any unit text.

Worked examples, 3 compounds total:
Cn1ccnc1C(=O)/C=C/c1ccc(CC(=O)Nc2ccc(S(F)(F)(F)(F)F)cc2)cc1 | 5.3
Cc1nc2sc(C(=O)Nc3cccc4ccccc34)c(N)c2cc1C(=O)/C=C/c1ccccc1 | 1.63
Cc1ccccc1NC(=O)C(=O)CC(=O)c1sc(Nc2ccccc2[N+](=O)[O-])nc1C | 59.3

Let us move to another entry and its TGI.
Item under review: CCCCNc1c(CN)cnc2cc(Cl)ccc12 . Reported TGI?
9.63
